tested on: TK-10; assay: NCI tumour cell line growth inhibition, 48 h
The source made the active and inactive calls. Cut-off read from the data, not from the text of the source: active = GI50 up to about 1.1 µM and inactive = higher.
Entries annotated with measured GI50

| molecule | GI50 |
| --- | --- |
| Cc1ccc(NC(=O)c2cccc(OP(=O)(Nc3ccc(C)cc3)Nc3ccc(C)cc3)c2)cc1 | 7.52 µM (inactive) |
| O=P(c1ccccc1)(c1ccccc1)N1O[C@@H](c2ccccc2)C=C[C@H]1c1ccccc1 | 14 µM (inactive) |
| CC[C@@]1(O)C(=O)OCc2c1cc1n(c2=O)Cc2c-1nc1ccccc1c2/C=N/NC(=O)c1ccc(N)cc1 | 15.6 µM (inactive) |
| Cn1c(C2CC(C)(C)c3c2c2ccccc2n3C)cc2ccccc21 (stereo not drawn) | > 304 µM (inactive) |
| CC1=NN(c2cccc(Cl)c2)C2(C1=Cc1cccs1)C(Cl)C(=O)N2c1nc2ccccc2s1 (stereo not drawn) | 28.6 µM (inactive) |

## Input Look up GI50 for this molecule: O=C(Nc1ccccc1)c1cc2ccccc2c(/N=N/c2ccc([N+](=O)[O-])cc2)c1O
## Output 56.1 µM (inactive)

Hey, just so you know, these numbers are from ChEMBL document CHEMBL1201862.
